# System: Citrobacter freundii
# assay.info: In vitro minimum inhibitory concentration for Citrobacter freundii (ATCC-8090) by agar dilution method
# Format: functional
# condition.context: Citrobacter freundii; read-out: MIC
attribute.measured: MIC (µg/mL)
Write it as a number; the unit µg/mL goes unstated.

COc1cc(N)nc(SCC2=C(C(=O)[O-])N3C(=O)C(NC(=O)/C(=N\OC(C)(C)C(=O)O)c4cnc(N)s4)C3SC2)[n+]1C (stereo unspecified)    0.13
Cn1cn[n+]2c(SCC3=C(C(=O)[O-])N4C(=O)C(NC(=O)/C(=N\OC(C)(C)C(=O)O)c5cnc(N)s5)C4SC3)nc(N)cc12 (stereo unspecified)    0.13
C/C=C/[n+]1c(N)cc(N)nc1SCC1=C(C(=O)[O-])N2C(=O)C(NC(=O)/C(=N\OC(C)(C)C(=O)O)c3cnc(N)s3)C2SC1 (stereo unspecified)    0.13
Cc1ccc(-[n+]2c(N)cc(N)nc2SCC2=C(C(=O)[O-])N3C(=O)C(NC(=O)/C(=N\OC(C)(C)C(=O)O)c4cnc(N)s4)C3SC2)c(C)c1 (stereo unspecified)    2
CC(C)(O/N=C(\C(=O)NC1C(=O)N2C(C(=O)[O-])=C(CSc3nc(N)cc(N)[n+]3-c3ccc(O)cc3)CSC12)c1cnc(N)s1)C(=O)O (stereo unspecified)    0.25

# next compound below
### Prompt Quick one: MIC of CC(C)(O/N=C(\C(=O)NC1C(=O)N2C(C(=O)O)=C(CSc3ncccn3)CSC12)c1cnc(N)s1)C(=O)O (stereo unspecified) ?
### Response 1

====

# System: Enterobacter cloacae
# assay.info: In vitro minimum inhibitory concentration for Enterobacter cloacae (ATCC-27508) by agar dilution method
# Format: functional
# condition.context: Enterobacter cloacae; read-out: MIC
attribute.measured: MIC (µg/mL)
Write it as a number; the unit µg/mL goes unstated.

### Prompt Quick one: MIC of CCC[n+]1c(N)cc(N)nc1SCC1=C(C(=O)[O-])N2C(=O)C(NC(=O)/C(=N\OC(C)(C)C(=O)O)c3cnc(N)s3)C2SC1 (stereo not given) ?
### Response 0.03

### Prompt What about this compound? COc1cc(N)nc(SCC2=C(C(=O)[O-])N3C(=O)C(NC(=O)/C(=N\OC(C)(C)C(=O)O)c4cnc(N)s4)C3SC2)[n+]1C (stereo not given)
### Response 0.02

### Prompt What about this compound? C[n+]1c(O)cc(O)nc1SCC1=C(C(=O)[O-])N2C(=O)C(NC(=O)/C(=N\OC(C)(C)C(=O)O)c3cnc(N)s3)C2SC1 (stereo not given)
### Response 1

### Prompt What about this compound? Cc1c(N)nc(SCC2=C(C(=O)[O-])N3C(=O)C(NC(=O)/C(=N\OC(C)(C)C(=O)O)c4cnc(N)s4)C3SC2)[n+]2nc(C)n(C)c12 (stereo not given)
### Response 0.03

### Prompt What about this compound? CNc1cc2n(C)cc[n+]2c(SCC2=C(C(=O)[O-])N3C(=O)C(NC(=O)/C(=N\OC(C)(C)C(=O)O)c4cnc(N)s4)C3SC2)n1 (stereo not given)
### Response 0.03

====

# Test system: Enterobacter cloacae
# assay.info: In vitro minimum inhibitory concentration for Enterobacter cloacae (ATCC-27508) by agar dilution method
# Type: functional
# condition.context: Enterobacter cloacae; read-out: MIC
attribute.measured: MIC (µg/mL)
Write it as a number; the unit µg/mL goes unstated.

Some solved cases for reference:
CC(C)(O/N=C(\C(=O)N[C@@H]1C(=O)N2C(C(=O)[O-])=C(C[n+]3ccccc3)CS[C@H]12)c1csc(N)n1)C(=O)O    0.03
Cn1c(O)c[n+]2c(SCC3=C(C(=O)[O-])N4C(=O)C(NC(=O)/C(=N\OC(C)(C)C(=O)O)c5cnc(N)s5)C4SC3)nc(N)cc12 (stereo not drawn)    0.03

# next molecule below
### Prompt Quick one: MIC of CC(C)(O/N=C(\C(=O)NC1C(=O)N2C(C(=O)[O-])=C(CSc3nc(N)cc(N)[n+]3C3CC3)CSC12)c1cnc(N)s1)C(=O)O (stereo not drawn) ?
### Response 0.03
